RUN_DESCRIPTION: clinical
ASSAY_SETUP: human, in vivo, iv, 20 mg/m2, 5-Days total (AUClast) IV
OUTCOME_MEASURE: AUC(0-t) (ng·h/mL)

>>> recorded_number("Nc1ncn([C@H]2C[C@H](O)[C@@H](CO)O2)c(=O)n1")
852

All values here come from patent US11660310B2.
